Test system: kochia
testSummary: Test A pre-/postemergence herbicide test
Format: in vivo, Kochia scoparia
conditionNotes: Postemergence, 125 g ai/ha; visual rating on 0 to 100 scale (0 no effect, 100 complete control), approx. 10 days

# compound, targetEntity, Plant response rating, Kochia
records = [
    ("CC(C)(C)c1cccc(C2CNC(=O)C2C(=O)Nc2ccccc2F)c1 (stereo not shown) [Compound 347]", "kochia", 0),
    ("O=C1NCC(c2cc3ccccc3s2)C1C(=O)Nc1ccccc1C(F)(F)F (stereo not shown) [Compound 297]", "kochia", 0),
    ("O=C1NCC(c2cccc(C(F)(F)F)c2)C1C(=O)Nc1cccc(Cl)c1F (stereo not shown) [Compound 344]", "kochia", 0),
    ("O=C1NCC(c2cnn(CC(F)(F)F)c2)C1C(=O)Nc1cccc(F)c1F (stereo not shown) [Compound 299]", "kochia", 0),
    ("O=C1NCC(c2ccc(OC(F)F)cc2)C1C(=O)Nc1ccccc1C(F)(F)F (stereo not shown) [Compound 348]", "kochia", 20),
    ("O=C1NCC(c2cccc(Br)c2)C1C(=O)Nc1cccc(F)c1F (stereo not shown) [Compound 309]", "kochia", 0),
    ("O=C1NCC(c2cccc(C(F)(F)F)c2)C1C(=O)Nc1ccccc1Cl (stereo not shown) [Compound 312]", "kochia", 20),
    ("O=C1NCC(c2cccc(-n3cccn3)c2)C1C(=O)Nc1cccc(F)c1F (stereo not shown) [Compound 337]", "kochia", 0),
    ("O=C1NCC(c2ccc(Cl)s2)C1C(=O)Nc1cccc(F)c1F (stereo not shown) [Compound 294]", "kochia", 30),
    ("CN1CC(c2ccc(C(F)(F)F)cc2)C(C(=O)Nc2ccccc2F)C1=O (stereo not shown) [Compound 304]", "kochia", 10),
]

---

# reported Ryegrass, Italian plant response rating; entries follow
Tested on: ryegrass, Italian
testSummary: Test C pre-/postemergence herbicide test
Assay type: in vivo, Lolium multiflorum
conditionNotes: Preemergence, 62 g ai/ha; scale 0 to 100 (0 no effect, 100 complete control)
Text: […]

# compound, targetEntity, Ryegrass, Italian plant response rating
data = [
    ("O=C1NCC(c2cccc(C(F)(F)F)c2)C1C(=O)Nc1cccc(F)c1F (stereo not drawn)", "ryegrass, Italian", 20),
    ("O=C1NCC(c2cccc(C(F)F)c2)C1C(=O)Nc1cccc(F)c1F (racemic)", "ryegrass, Italian", 35),
    ("O=C1NCC(c2cccc(C(F)(F)F)c2)C1C(=O)Nc1cccc(Cl)c1F (stereo not drawn)", "ryegrass, Italian", 0),
    ("O=C1NCC(c2ccc(C(F)(F)F)cc2)C1C(=O)Nc1ccccc1Cl (stereo not drawn)", "ryegrass, Italian", 0),
    ("CN1CC(c2ccc(F)cc2)C(C(=O)Nc2cccc(F)c2F)C1=O (stereo not drawn)", "ryegrass, Italian", 10),
    ("O=C1NCC(c2cccc(C(F)(F)F)c2)C1C(=O)Nc1ccc(F)cc1F (racemic)", "ryegrass, Italian", 0),
]

---

Tested on: ducksalad
testSummary: Test C flooded paddy test
Type: in vivo, Heteranthera limosa
conditionNotes: Flood; 1000 g ai/ha; scale 0 to 100
Quick reference for Plant response rating, Ducksalad among some compounds
measuredMetric: Plant response rating, Ducksalad

# compound, recordedValue
data = [
    ("O=C1NC[C@@H](c2ccc(F)c(F)c2)[C@@H]1C(=O)Nc1ccccc1F [Compound 102]", 0),
    ("CN1CC(c2ccc(F)cc2)C(C(=O)Nc2cccc(F)c2F)C1=O (centres unmarked) [Compound 271]", 100),
    ("O=C1NCC(c2cccc(C(F)(F)F)c2)C1C(=O)Nc1ccccc1Cl (racemic) [Compound 189]", 100),
    ("O=C1NCC(c2ccc(F)c(F)c2)C1C(=O)Nc1cccc(F)c1F (racemic) [Compound 107]", 70),
    ("O=C1NCC(c2cccc(C(F)(F)F)c2)C1C(=O)Nc1nc(C(F)(F)F)co1 (racemic) [Compound 114]", 80),
]

---

Tested on: ragweed
testSummary: Test A pre-/postemergence herbicide test
Format: in vivo, Ambrosia elatior
conditionNotes: Postemergence, 125 g ai/ha; 0 to 100 scale, 0 is no effect, 100 is complete control
measuredMetric: Plant response rating, Ragweed

# compound, recordedValue
records = [
    ("O=C1NCC(c2cccc(C3CC3)c2)C1C(=O)Nc1ccccc1F (racemic)", 0),
    ("O=C1NCC(c2cccc(C(F)(F)F)c2)C1C(=O)Nc1ccc(F)cc1F (racemic)", 0),
    ("CC(C)(C)c1cccc(C2CNC(=O)C2C(=O)Nc2ccccc2C(F)(F)F)c1 (racemic)", 0),
    ("O=C1NCC(c2cccc(OC(F)F)c2)C1C(=O)Nc1ccccc1Cl (stereo not drawn)", 20),
    ("Cc1ccc(C2CNC(=O)C2C(=O)Nc2cccc(F)c2)cc1 (racemic)", 0),
    ("COc1ccc(C2CNC(=O)C2C(=O)Nc2ccccc2C(F)(F)F)cc1C(F)(F)F (stereo not drawn)", 0),
    ("O=C1NCC(c2ccc(-c3ccccc3F)cc2)C1C(=O)Nc1cccc(F)c1F (stereo not drawn)", 0),
    ("O=C1NCC(c2ccc(Cl)cc2)C1C(=O)Nc1ccccc1Cl (stereo not drawn)", 0),
    ("CC(C)(C)c1cccc(C2CNC(=O)C2C(=O)Nc2cccc(F)c2F)c1 (racemic)", 0),
    ("O=C1NCC(c2ccc3c(c2)OC(F)(F)O3)C1C(=O)Nc1ccccc1F (racemic)", 0),
    ("O=C1NCC(c2cccc(C(F)(F)F)c2)C1C(=O)Nc1cccc(F)c1 (racemic)", 0),
    ("O=C1NCC(c2ccc(C(F)(F)F)cc2)C1C(=O)Nc1ccccc1Cl (stereo not drawn)", 30),
]

---

System: velvetleaf
testSummary: Test A pre-/postemergence herbicide test
Assay type: in vivo, Abutilon theophrasti
conditionNotes: Postemergence, 1000 g ai/ha; 0 to 100 scale (0 no effect, 100 complete control)
Text: […]

# compound, Plant response rating, Velvetleaf
measured = [
    ("CON(C(=O)C1C(=O)NCC1c1ccc(F)c(F)c1)c1ccccc1[N+](=O)[O-] (stereo not drawn)", 0),
    ("Cn1ccc(C2CNC(=O)C2C(=O)Nc2ccccc2C(F)(F)F)n1 (racemic)", 0),
    ("O=C1NCC(c2cc(F)c(F)c(F)c2)C1C(=O)Nc1ccccc1F (racemic)", 20),
    ("O=C1NCC(c2cc(F)c(F)c(F)c2)C1C(=O)Nc1ccccc1C(F)(F)F (racemic)", 20),
    ("O=C1NCC(c2ccc(Cl)c(Cl)c2)C1C(=O)Nc1cccc(F)c1 (racemic)", 0),
    ("O=C1NCC(c2ccc(F)c(F)c2)C1C(=O)Nc1cccc(=O)[nH]1 (racemic)", 0),
]

---

Tested on: corn
testSummary: Test A pre-/postemergence herbicide test
Format: in vivo, Zea mays
conditionNotes: Postemergence, 125 g ai/ha; 0 to 100 scale, 0 is no effect, 100 is complete control
Measured Plant response rating, Corn, listed per entry.
measuredMetric: Plant response rating, Corn

# compound, recordedValue
records = [
    ("O=C1NCC(c2cc3ccccc3o2)C1C(=O)Nc1ccccc1F (racemic)", 0),
    ("O=C1NCC(c2cccc(C(F)(F)F)c2)C1C(=O)Nc1cccc(F)c1F (centres unmarked)", 50),
    ("O=C1NCC(c2ccc(C(F)(F)F)nc2)C1C(=O)Nc1ccccc1C(F)(F)F (racemic)", 0),
    ("O=C1NCC(c2ccc(C(F)(F)F)c(F)c2)C1C(=O)Nc1ccccc1C(F)(F)F (racemic)", 0),
    ("O=C1NCC(c2ccc(-c3ccccc3F)cc2)C1C(=O)Nc1cccc(F)c1F (centres unmarked)", 0),
    ("O=C1NCC(c2ccc(-c3ccccc3C(F)(F)F)cc2)C1C(=O)Nc1cccc(F)c1F (centres unmarked)", 0),
    ("CN1CC(c2ccc(F)cc2)C(C(=O)Nc2cccc(F)c2F)C1=O (centres unmarked)", 20),
    ("O=C1NCC(c2cc3ccccc3o2)C1C(=O)Nc1ccccc1C(F)(F)F (centres unmarked)", 0),
]

---

Test system: pigweed
testSummary: Test A pre-/postemergence herbicide test
Format: in vivo, Amaranthus retroflexus
conditionNotes: preemergence; 500 g ai/ha; 0 to 100 scale, 0 is no effect and 100 is complete control
Please assign FALSE whenever Plant response rating, Pigweed is at or above 50, and TRUE whenever it is below.

# compound, assignedClass
rows = [
    ("O=C1NCC(c2ccc(C(F)(F)F)nc2)C1C(=O)Nc1ccccc1C(F)(F)F (racemic)", "FALSE"),
    ("O=C1NCC(c2cccc(C(F)F)c2)C1C(=O)Nc1ccc(F)c(F)c1F (racemic)", "FALSE"),
    ("O=C1NCC(c2ccc(OC(F)F)cc2)C1C(=O)Nc1ccccc1Br (stereo not drawn)", "TRUE"),
    ("O=C1NCC(c2ccc(Cl)cc2)C1C(=O)Nc1ccccc1Cl (stereo not drawn)", "TRUE"),
    ("O=C1NCC(c2ccc(OC(F)F)cc2)C1C(=O)Nc1ccccc1Cl (stereo not drawn)", "TRUE"),
]
